- assay-details: Single daily dose PK in human subjects (summary statements)
- Type: in vivo
- details: plasma, oral, 5 mg, single 5 mg daily dose, read-out: mean AUC(0-24)
endpoint: AUC(0-t)

Recorded AUC(0-t) for `Cc1ncc(OC[C@@]2(c3cccc(F)c3)C[C@H]2C(=O)Nc2ccc(F)cn2)c(C)n1` , please?
95 to 110 ng·h/mL

---

- assay-details: Multiple ascending dose study (002 Study): plasma PK
- Type: in vivo, human
- details: human, plasma, oral, 75 mg, 75-mg dose; read-out: effective half-life based on accumulation (converted)
endpoint: half-life (h)
Your answer should be a plain number; it is taken to be in h.

Item `Cc1ncc(OC[C@@]2(c3cccc(F)c3)C[C@H]2C(=O)Nc2ccc(F)cn2)c(C)n1` has what recorded half-life?
39.3

---

- assay-details: Crossover study of relative bioavailability of tablet versus capsule (005 Study): plasma PK
- Assay type: in vivo, human
- details: human, plasma, po, 10 mg, single oral 10 mg Capsule, healthy adults; read-out: AUC(0-72) Mean(SD)
endpoint: AUC(0-t) (ng·h/mL)
Number only, in ng·h/mL; omit the unit.

GET /values?readout=AUC(0-t)&item= `Cc1ncc(OC[C@@]2(c3cccc(F)c3)C[C@H]2C(=O)Nc2ccc(F)cn2)c(C)n1`
372

---

- assay-details: Crossover study of relative bioavailability of tablet versus capsule (005 Study): plasma PK
- Format: in vivo, human
- details: human, plasma, po, 25 mg, single oral 25 mg Tablet, healthy adults; read-out: AUC(0-t) Mean(SD)
endpoint: AUC(0-t)
Don't forget the unit after the number, please.

# AUC(0-t) lookup, item Cc1ncc(OC[C@@]2(c3cccc(F)c3)C[C@H]2C(=O)Nc2ccc(F)cn2)c(C)n1 [Compound A]
1070 ng·h/mL

---

- assay-details: Crossover study of relative bioavailability of tablet versus capsule (005 Study): plasma PK
- Format: in vivo, human
- details: human, plasma, po, 10 mg, single oral 10 mg Tablet, healthy adults; read-out: Cmax Mean(SD)
endpoint: Cmax (ng/mL)
The reply should be a number in ng/mL, with the unit left off.

# query: Cmax of entry Cc1ncc(OC[C@@]2(c3cccc(F)c3)C[C@H]2C(=O)Nc2ccc(F)cn2)c(C)n1 [Compound A]
58.1

---

- assay-details: Multiple ascending dose study (002 Study): plasma PK
- Format: in vivo, human
- details: human, plasma, oral, 10 mg, Day 1, 10 mg once daily in the evening; read-out: Cmax Mean(SD)
endpoint: Cmax (ng/mL)
Field: numeric (ng/mL). Do not append units.

Cmax lookup needed for `Cc1ncc(OC[C@@]2(c3cccc(F)c3)C[C@H]2C(=O)Nc2ccc(F)cn2)c(C)n1` , thanks.
30.4

---

- assay-details: Single daily dose PK in human subjects (summary statements)
- Assay type: in vivo
- details: plasma, oral, single 10 mg daily dose, read-out: mean maximum plasma concentration (Cmax)
endpoint: Cmax

I would be grateful if you could share the reported Cmax for Cc1ncc(OC[C@@]2(c3cccc(F)c3)C[C@H]2C(=O)Nc2ccc(F)cn2)c(C)n1 [Compound A] .
30 to 58 ng/mL

---

- assay-details: Crossover study of relative bioavailability of tablet versus capsule (005 Study): plasma PK
- Assay type: in vivo, human
- details: human, plasma, oral, tablet and capsule, across all dose levels; read-out: median tmax
endpoint: Tmax

Sample `Cc1ncc(OC[C@@]2(c3cccc(F)c3)C[C@H]2C(=O)Nc2ccc(F)cn2)c(C)n1` — what was its Tmax?
1 to 1.5 h
